Test system: LOC_OS06G22820-cb001;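 further: purified Escherichia coli-expressed rice kinase domain construct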
Sequence (whole entry): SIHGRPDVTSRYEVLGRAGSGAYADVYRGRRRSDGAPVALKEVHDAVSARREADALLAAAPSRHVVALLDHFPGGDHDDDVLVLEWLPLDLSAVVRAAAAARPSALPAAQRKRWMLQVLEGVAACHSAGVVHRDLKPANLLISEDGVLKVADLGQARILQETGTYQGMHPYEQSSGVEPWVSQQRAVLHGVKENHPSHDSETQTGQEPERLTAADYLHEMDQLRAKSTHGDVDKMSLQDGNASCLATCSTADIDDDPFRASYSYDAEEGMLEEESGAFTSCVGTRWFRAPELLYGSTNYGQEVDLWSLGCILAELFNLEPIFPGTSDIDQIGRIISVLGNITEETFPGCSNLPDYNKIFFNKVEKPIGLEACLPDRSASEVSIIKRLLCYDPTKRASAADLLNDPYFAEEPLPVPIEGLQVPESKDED
Assay Remarks: thermal shift delta Tm vs DMSO control; higher = stronger stabilization (binding)
Protocol Conditions: 12.5 µM; protein concentration 2 µM
I'd be grateful if you could share measured thermal shift delta Tm for these entries.
Please format your answer as a value with the unit trailing.

Solved entries:
{"columns": ["Structure", "thermal shift delta Tm"],
 "data": [
  ["Cn1cc(/C=C2\\C(=O)Nc3cccnc32)c2ccccc21", "0.62 °C"],
  ["Cc1cc(F)c(Nc2ncnc3cc(OCc4ccccc4)ccc23)cc1O", "1.28 °C"],
  ["COc1cccc2cc(-c3nc([C@H]4CC[C@H](C(=O)O)CC4)n4ncnc(N)c34)[nH]c12", "0.66 °C"],
  ["CCOc1ccn(-c2ccc(F)cc2)c(=O)c1C(=O)Nc1ccc(Oc2ccnc(N)c2Cl)c(F)c1", "0.43 °C"]
]}

Turning now to a further record.
Consider the compound CN(C)Cc1cccc(N=C(c2ccccc2)c2c(O)[nH]c3cc(C(=O)N(C)C)ccc23)c1 tested on LOC_OS06G22820-cb001; state its thermal shift delta Tm.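 Further: purified Escherichia coli-expressed rice kinase domain construct.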
0.98 °C
